Test system: A549 NSCLC
MEASUREMENT_NOTES: NCI tumour cell line growth inhibition, 48 h
Quick reference: TGI of the listed items.

{"COMPOUND": "COc1ccc2c(c1)OC(c1ccccc1O)CC2=O (stereo not given)", "TGI": "> 100 µM"}

Which TGI reading was recorded for the compound "CC#CC(=O)N1CC[C@@H](n2c(=O)n(-c3ccc(Oc4ccccc4)cc3)c3c(N)ncnc32)C1" ?
> 100 µM

Which TGI reading was recorded for the compound "CCOC(=O)c1cc(OC(=O)CC)c2c(OC)ccc(OC)c2c1" ?
> 100 µM

Which TGI reading was recorded for the compound CC1=Nc2ccccc2C12C(c1ccccc1)C(c1ccccc1)C(=O)N1c3ccccc3CC12 (stereo not given) ?
> 100 µM

Which TGI reading was recorded for the compound "C#Cc1cc(CN(CC(=O)OC(C)(C)C)CC(=O)OC(C)(C)C)nc(CN(CC(=O)OC(C)(C)C)CC(=O)OC(C)(C)C)c1" ?
89.4 µM

###

Quick reference: GI50 of the listed items.
System: UO-31 renal
MEASUREMENT_NOTES: NCI tumour cell line growth inhibition, 48 h

{"SMILES_NOTATION": "Nc1ccccc1C#Cc1ccccc1C#Cc1cnccn1", "RESULT_VALUE": "12.1 µM"}
{"SMILES_NOTATION": "CCCCCCNCCCNc1c2ccccc2nc2cccc([N+](=O)[O-])c12", "RESULT_VALUE": "0.145 µM"}
{"SMILES_NOTATION": "O=C(O)c1ccccc1Nc1ccc2nnc(-c3ccncc3)n2n1", "RESULT_VALUE": "3.81 µM"}
{"SMILES_NOTATION": "O=S(=O)(Nc1ccccn1)c1ccc(N=Nc2ccc(O)c3ncccc23)cc1", "RESULT_VALUE": "0.696 µM"}
{"SMILES_NOTATION": "COc1ccc2nc(-c3cc4c([nH]c5ccccc54)c(-c4ccc(F)c(F)c4)n3)[nH]c2c1", "RESULT_VALUE": "1.46 µM"}
{"SMILES_NOTATION": "O=C(NCCCCCCNC(=O)OCc1ccc2c(Cl)cc(Cl)c(O)c2n1)OCc1ccc2c(Cl)cc(Cl)c(O)c2n1", "RESULT_VALUE": "0.619 µM"}
{"SMILES_NOTATION": "COc1cc(C)c(NC(=O)CN(C)C)cc1Nc1nc(Nc2cccc(F)c2C(N)=O)c2cc[nH]c2n1", "RESULT_VALUE": "3.33 µM"}
{"SMILES_NOTATION": "CC[CH2][Sn]([CH2]CC)([O]C(=O)Cc1ccc(F)cc1)[O][Sn]([CH2]CC)([CH2]CC)[O]C(=O)Cc1ccc(F)cc1", "RESULT_VALUE": "0.482 µM"}

Now for a further molecule.
Which GI50 reading was recorded for the molecule "COc1cnc2c(c1)C(=O)c1c-2n(CCCNC(C)C)c(=O)c2cc([N+](=O)[O-])ccc12" ?
0.0243 µM

###

Tested on: DMS 114 small cell lung
MEASUREMENT_NOTES: NCI tumour cell line growth inhibition, 48 h
Quick reference: TGI of the listed items.

{"COMPOUND": "Cc1c(CC/C(=N\\Nc2ccc([N+](=O)[O-])cc2[N+](=O)[O-])c2ccccc2)c2ccccc2n1C", "TGI": "> 100 µM"}
{"COMPOUND": "CC1=Nc2ccccc2C12C(c1ccccc1)C(c1ccccc1)C(=O)N1c3ccccc3CC12 (stereo not given)", "TGI": "> 100 µM"}
{"COMPOUND": "CCCc1c(C(=O)OCC)[nH]c(C(=O)CCC(=O)c2[nH]c(C(=O)OCC)c(CCC)c2C(=O)OCC)c1C(=O)OCC", "TGI": "> 100 µM"}
{"COMPOUND": "CN1N=C2c3ccccc3CC[C@H]2C1c1cccc(O)c1 (stereo not given in full)", "TGI": "> 100 µM"}
{"COMPOUND": "CCCCCC/C=C1\\CCC(CN(C)C)C1=O (stereo not given)", "TGI": "8.99 µM"}

Which TGI reading was recorded for the compound FC(F)(F)c1cccc(C2SCc3nc4ccccc4n32)c1 (stereo not given) ?
> 100 µM

Which TGI reading was recorded for the compound "c1ccc2c(c1)[nH]c1c2ncc2[nH]c3ccccc3c21" ?
6.69 µM

Which TGI reading was recorded for the compound O=C1NC2C(CCO)CC=C[C@H]2c2cc3c(cc21)OCO3 (stereo not given in full) ?
> 100 µM

Which TGI reading was recorded for the compound "N#C[S-].[Ce+3].c1cnc2c(c1)ccc1cccnc12.c1cnc2c(c1)ccc1cccnc12.c1cnc2c(c1)ccc1cccnc12" ?
4.52 µM

Which TGI reading was recorded for the compound Nc1ncnc2c1ncn2C1CC(OC2CCCCO2)C(CO)O1 (stereo not given) ?
> 100 µM

Source listed as PubChem BioAssay (NCI).
